# Test system: NCI-H522 lung
# ASSAY REMARKS: NCI tumour cell line growth inhibition, 48 h; in the data active = GI50 below about 0.43 µM; inactive = the rest
Hi there, use one of these labels in your reply, thanks! active, inactive

input: In this assay, the call recorded for CCCCCCn1c(-c2ccc(C(=O)O/N=C(\N)c3ccc4c(c3)OCO4)cc2)nc(-c2ccccc2)c1-c1ccccc1 was what?
output: inactive

input: Could you do the same for C[C@H](CCOc1cccc(CC(=O)O)c1)N(Cc1cccc(C(F)(F)F)c1Cl)CC(c1ccccc1)c1ccccc1 , please?
output: inactive

input: Could you do the same for O=c1[nH]c(-c2cccc(F)c2)cc2cc(F)ccc12 , please?
output: active

input: Could you do the same for Cc1cccc(NC2=C(Cl)C(=O)c3nc(C)ccc3C2=O)c1 , please?
output: inactive

input: Could you do the same for O=C(Nc1ncc(Cc2cccc(C(F)(F)F)c2)s1)c1ccc2c(c1)OCCO2 , please?
output: active

input: Could you do the same for CCSc1nc(N=Cc2ccccc2O)c2cn[nH]c2n1 , please?
output: inactive

input: Could you do the same for COc1ccc(CNc2c3ccccc3nc3ccccc23)cc1F , please?
output: inactive

input: Could you do the same for C=C(CN(C)Cc1ccccc1)c1ccc(NC(=O)c2ccc(C(=C)CN(C)Cc3ccccc3)cc2)cc1 , please?
output: inactive

input: Could you do the same for COC(=O)C1=CN(CC2=CC(=O)C(C)=CC2=O)C=C(C(=O)OC)C1c1ccccc1OC , please?
output: inactive

input: Could you do the same for CCOC(=O)Nc1c(C)nc2ccccn12 , please?
output: inactive

* * *

# Tested on: HCT-116 colon
# ASSAY REMARKS: NCI tumour cell line growth inhibition, 48 h
Where a SMILES comes first, the peptide text is derived from it. The star is where a group is joined. Palmitoyl = CCCCCCCCCCCCCCCC(=O)*
MEASUREMENT NAME: TGI

input: What TGI value was documented for this molecule, O[C@H]1[C@H](O)[C@@H](O)CN2CC[C@H](O)[C@H]12 ?
output: > 100 µM

input: Could you do the same for CC(C)C1CN(C(=O)OCc2ccccc2)C2N1C(=O)C2(C)OCc1ccccc1 (stereo not drawn) , please?
output: > 100 µM

input: Could you do the same for C=C(C)[C@H]1C2=CC(C(=O)OC)=C(C[C@H](C(=C)C)[C@@H](O)[C@@H](O)C3=C[C@H]1OC3=O)O2 , please?
output: > 100 µM

input: Could you do the same for O=C(O)c1ccc(CNCc2ccccc2)cc1 , please?
output: > 100 µM

input: Could you do the same for CCOC(=O)Nc1c(C)nc2ccccn12 , please?
output: > 100 µM

input: Could you do the same for C[C@@H]1CC[C@H]2[C@H]1[C@H]1[C@@H](CC[C@]2(C)N=C=S)C1(C)C , please?
output: 31.7 µM

input: Could you do the same for COc1ccc(NC(=O)CSc2nnc(-c3ccc(NC(C)=O)cc3)o2)cc1 , please?
output: 29.4 µM

input: Could you do the same for CC[C@@H]1NC(C(=O)OC)Cc2c1[nH]c1ccccc21 (stereo partly drawn) , please?
output: > 100 µM

input: Could you do the same for COc1ccc(-c2c(C#N)c(N3CCOCC3)nc3[nH]c(=S)[nH]c(=S)c23)cc1OC , please?
output: > 100 µM

input: Could you do the same for CCCCCCCCCCCCCCCC(=O)N1CCCC1C(=O)NCC(=O)NC(Cc1ccccc1)C(=O)N1CCCC1C(=O)NC(CO)C(=O)NC(Cc1ccc(O)cc1)C(=O)NC(CCCCN)C(=O)NC(CC(C)C)C(=O)NC(CCCN=C(N)N)C(=O)N1CCCC1C(=O)NCC(N)=O (stereo not drawn) (Palmitoyl-PGFPSYKLRPG-NH2; configuration not given here) , please?
output: 31.9 µM

input: Could you do the same for O=[N+]([O-])c1cc2oc(CSc3ccccc3)nc2cc1Cl , please?
output: > 100 µM

input: Could you do the same for Cc1cc(C[C@H]2O[C@@H]3OC(C)(C)O[C@@H]3[C@H]3OC(C)(C)O[C@H]32)c2ccccc2n1 , please?
output: > 100 µM

input: Could you do the same for N#CC(I)CS(=O)(=O)c1ccccc1 (stereo not drawn) , please?
output: 3.11 µM

input: Could you do the same for CC(C)(C)c1ccc2c(c1)C#Cc1cc3c(cc1OCCCO2)C#Cc1cc(C(C)(C)C)ccc1OCCCO3 , please?
output: > 100 µM

input: Could you do the same for CC(C)C1=CC23CCC4C(C)(C(=O)O)CCCC4(C)C2CC1C1C(=O)N(CCCCCCN2C(=O)C4C5CC6C7(C)CCCC(C)(C(=O)O)C7CCC6(C=C5C(C)C)C4C2=O)C(=O)C13 (stereo not drawn) , please?
output: 20.9 µM

input: Could you do the same for FC(F)(F)c1ccc2nc(NCc3ccccc3)c(-c3ccccc3)nc2c1 , please?
output: > 100 µM

input: Could you do the same for O=C1C/C(Br)=C\c2ccccc2-c2ccccc21 , please?
output: 3.71 µM

input: Could you do the same for O=c1[nH]c(-c2cccc(F)c2)cc2cc(F)ccc12 , please?
output: > 100 µM

* * *

# System: COLO 205 colon
# ASSAY REMARKS: NCI tumour cell line growth inhibition, 48 h
MEASUREMENT NAME: TGI

input: API: value(readout=TGI, system=COLO 205 colon) for record C=C(CN(C)C)C(=O)c1ccc(C(=O)C(=C)CN(C)C)cc1
output: > 100 µM

input: Could you do the same for COc1nc(=O)n(C2C=CC(=O)O2)cc1F (stereo not given) , please?
output: 3.62 µM

input: Could you do the same for COc1ccc(Cl)cc1NC(=O)c1ccc(NC2=C(Cl)C(=O)N(Cc3ccccc3)C2=O)cc1 , please?
output: > 100 µM

input: Could you do the same for COc1cccc2c1O/C(=C\c1ccc([N+](=O)[O-])s1)C2=O , please?
output: > 100 µM

input: Could you do the same for Cc1nc2ccccc2c(-n2cccn2)c1CCn1cccn1 , please?
output: > 100 µM

input: Could you do the same for O=C(O)c1cccc(S(=O)(=O)NN2C(=O)CSC2c2ccc(Cl)cc2Cl)c1 (stereo not given) , please?
output: > 100 µM

input: Could you do the same for CC(=O)N/C(=C\c1ccccc1/C=C(\NC(C)=O)c1nc2cc(C)c(C)cc2[nH]1)c1nc2cc(C)c(C)cc2[nH]1 , please?
output: > 100 µM

input: Could you do the same for COc1cc2c(cc1OCCCCCN1CCN(c3ncnc4ccccc34)CC1)N=CC1CCCN1C2=O (stereo not given) , please?
output: 0.0408 µM

input: Could you do the same for N#Cc1sc2c(c1OC(=O)c1ccc(C(F)(F)F)cc1)c(=O)n(-c1ccccc1)c(=S)n2-c1ccccc1 , please?
output: 46.4 µM

input: Could you do the same for CCOC(=O)Nc1c(C)nc2ccccn12 , please?
output: > 100 µM

* * *

Kindly state TGI for each of the entries shown.
# Tested on: HOP-92 NSCLC
# ASSAY REMARKS: NCI tumour cell line growth inhibition, 48 h
API: value field is a number in µM; no unit string.

input: API: value(readout=TGI, system=HOP-92 NSCLC) for record CC(=O)N/C(=C\c1ccccc1/C=C(\NC(C)=O)c1nc2cc(C)c(C)cc2[nH]1)c1nc2cc(C)c(C)cc2[nH]1
output: 62.1

input: Could you do the same for COc1cc2c(cc1OCCCN1CCN(CCCOc3cc4c(cc3OC)C(=O)N3CC(F)(F)C[C@H]3C=N4)CC1)N=C[C@@H]1CC(F)(F)CN1C2=O , please?
output: 76.3

input: Could you do the same for CCN(C(=O)N[C@@H](C)C(=O)N[C@@H](Cc1ccccc1)C(=O)OC)c1ccccc1 , please?
output: 68

input: Could you do the same for O=c1c2c(no[n+]2[O-])c2ccccc2n1-c1ccccc1 , please?
output: 17.6

input: Could you do the same for CC(C)N1CCN(c2ccc(OCC3COC(Cn4cncn4)(c4ccc(Cl)cc4Cl)O3)cc2)CC1 (stereo unspecified) , please?
output: 30.8

input: Could you do the same for N#CC(I)CS(=O)(=O)c1ccccc1 (stereo unspecified) , please?
output: 26.9

input: Could you do the same for CC(C)C1=CC23CCC4C(C)(C(=O)O)CCCC4(C)C2CC1C1C(=O)N(CCCCCCN2C(=O)C4C5CC6C7(C)CCCC(C)(C(=O)O)C7CCC6(C=C5C(C)C)C4C2=O)C(=O)C13 (stereo unspecified) , please?
output: 36.2

input: Could you do the same for CCN(CCNS(C)(=O)=O)c1ccc(N)c(C)c1 , please?
output: 16.3

input: Could you do the same for Cc1cccc(NC2=C(Cl)C(=O)c3nc(C)ccc3C2=O)c1 , please?
output: 3.27

input: Could you do the same for CNCCCNc1ccnc2cc(Cl)ccc12 , please?
output: 39.1

input: Could you do the same for O=C(CNc1ccc(Cl)cc1Cl)Nn1c(-c2ccccc2)nc2ccccc2c1=O , please?
output: 22.7

input: Could you do the same for FC(F)(F)c1ccc2nc(NCc3ccccc3)c(-c3ccccc3)nc2c1 , please?
output: 17.9
